- experimental target: T1, human EGFRvIII protein on the cell surface (human, UniProt P00533 25-1210)
- T1 construct: whole, on cells; the cell line is named under assay; also called hEGFRvIII; U87MG-hEGFRvIII
- method summary: FACS on U87MG-EGFRvIII cells
- Experimental: The preparation of U87MG-EGFRvIII required for FACS detection is as described in the preparation of the immunogen B in example 1. Normal human primary hepatocytes are purchased from BioreclamationIVT, and A431 tumor cells are purchased from ATCC. […] The plate is centrifugally washed twice with the FACS buffer, added with 100 μL/well of a 1:1000 diluted fluorescence (Alexa 488) labeled secondary antibody (purchased from Invitrogen), and incubated on ice for 1 hour. […]
Consider the following binders; for each one, report its pEC50.
One number for each entry, as −log10 of the molar value.

Below, each entry is followed by its recorded pEC50 result.
The binder Humanized antibody h63A10A7-38 (antibody, human IgG1, V domains shown, also called VH-g7/VL-g3) VH: QVQLVQSGAEVKKPGASVKVSCKASGYTFISFTMHWVRQAPGQGLEWIGYINPNSGYTKYNQKFKDKATLTRDTSTSTVYMELSSLRSEDTAVYYCTRGGGRGFAYWGQGTLVTVSS VL: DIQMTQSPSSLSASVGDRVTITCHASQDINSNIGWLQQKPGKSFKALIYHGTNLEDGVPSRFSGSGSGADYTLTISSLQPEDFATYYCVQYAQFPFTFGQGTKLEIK showed pEC50 equal to 8.52

The binder Humanized antibody h63A10A7-25 (antibody, human IgG1, V domains shown, also called VH-g4/VL-g7) VH: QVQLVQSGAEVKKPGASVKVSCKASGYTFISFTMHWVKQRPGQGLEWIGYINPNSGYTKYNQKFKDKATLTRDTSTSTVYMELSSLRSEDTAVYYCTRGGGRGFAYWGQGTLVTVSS VL: DILMTQSPSSLSASVGDRVTITCHASQDINSNIGWYQQKPGKSFKALIYHGTNLEDGVPSRFSGSGSGADYTLTISSLQPEDFATYYCVQYAQFPFTFGQGTKLEIK showed pEC50 equal to 8.88

The binder Humanized antibody h75G7C6-10 (antibody, human IgG1, V domains shown, also called VH-g1/VL-g1) VH: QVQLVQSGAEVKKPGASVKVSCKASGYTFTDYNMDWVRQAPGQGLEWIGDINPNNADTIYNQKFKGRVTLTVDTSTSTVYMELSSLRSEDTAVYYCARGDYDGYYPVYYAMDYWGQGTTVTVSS VL: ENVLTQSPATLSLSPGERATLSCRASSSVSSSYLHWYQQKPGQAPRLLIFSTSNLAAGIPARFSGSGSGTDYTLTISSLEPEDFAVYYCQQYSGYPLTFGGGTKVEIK showed pEC50 equal to 8.27

The binder Humanized antibody h63A10A7-37 (antibody, human IgG1, V domains shown, also called VH-g6/VL-g3) VH: QVQLVQSGAEVKKPGASVKVSCKASGYTFISFTMHWVKQRPGQGLEWMGYINPNSGYTKYNQKFKDKATMTRDTSTSTVYMELSSLRSEDTAVYYCTRGGGRGFAYWGQGTLVTVSS VL: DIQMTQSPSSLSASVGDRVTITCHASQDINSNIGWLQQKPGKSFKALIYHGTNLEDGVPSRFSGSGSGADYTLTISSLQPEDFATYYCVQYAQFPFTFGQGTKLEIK showed pEC50 equal to 8.27

Okay, now this binder:
The binder Humanized antibody h75G7C6-16 (antibody, human IgG1, V domains shown, also called VH-g2/VL-g3) VH: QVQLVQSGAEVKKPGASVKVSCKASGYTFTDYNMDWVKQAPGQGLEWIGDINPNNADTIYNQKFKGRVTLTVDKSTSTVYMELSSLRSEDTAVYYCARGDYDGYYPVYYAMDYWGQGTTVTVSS VL: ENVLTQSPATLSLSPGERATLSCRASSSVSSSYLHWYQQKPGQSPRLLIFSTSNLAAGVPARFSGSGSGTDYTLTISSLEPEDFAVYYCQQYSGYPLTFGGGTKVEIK showed pEC50 equal to 8.17
